- STUDY_SYSTEM: TRPA1 (Homo sapiens, UniProt O75762)
- Construct: host or cells: HEK293 or CHO
- Sequence (O75762 whole entry): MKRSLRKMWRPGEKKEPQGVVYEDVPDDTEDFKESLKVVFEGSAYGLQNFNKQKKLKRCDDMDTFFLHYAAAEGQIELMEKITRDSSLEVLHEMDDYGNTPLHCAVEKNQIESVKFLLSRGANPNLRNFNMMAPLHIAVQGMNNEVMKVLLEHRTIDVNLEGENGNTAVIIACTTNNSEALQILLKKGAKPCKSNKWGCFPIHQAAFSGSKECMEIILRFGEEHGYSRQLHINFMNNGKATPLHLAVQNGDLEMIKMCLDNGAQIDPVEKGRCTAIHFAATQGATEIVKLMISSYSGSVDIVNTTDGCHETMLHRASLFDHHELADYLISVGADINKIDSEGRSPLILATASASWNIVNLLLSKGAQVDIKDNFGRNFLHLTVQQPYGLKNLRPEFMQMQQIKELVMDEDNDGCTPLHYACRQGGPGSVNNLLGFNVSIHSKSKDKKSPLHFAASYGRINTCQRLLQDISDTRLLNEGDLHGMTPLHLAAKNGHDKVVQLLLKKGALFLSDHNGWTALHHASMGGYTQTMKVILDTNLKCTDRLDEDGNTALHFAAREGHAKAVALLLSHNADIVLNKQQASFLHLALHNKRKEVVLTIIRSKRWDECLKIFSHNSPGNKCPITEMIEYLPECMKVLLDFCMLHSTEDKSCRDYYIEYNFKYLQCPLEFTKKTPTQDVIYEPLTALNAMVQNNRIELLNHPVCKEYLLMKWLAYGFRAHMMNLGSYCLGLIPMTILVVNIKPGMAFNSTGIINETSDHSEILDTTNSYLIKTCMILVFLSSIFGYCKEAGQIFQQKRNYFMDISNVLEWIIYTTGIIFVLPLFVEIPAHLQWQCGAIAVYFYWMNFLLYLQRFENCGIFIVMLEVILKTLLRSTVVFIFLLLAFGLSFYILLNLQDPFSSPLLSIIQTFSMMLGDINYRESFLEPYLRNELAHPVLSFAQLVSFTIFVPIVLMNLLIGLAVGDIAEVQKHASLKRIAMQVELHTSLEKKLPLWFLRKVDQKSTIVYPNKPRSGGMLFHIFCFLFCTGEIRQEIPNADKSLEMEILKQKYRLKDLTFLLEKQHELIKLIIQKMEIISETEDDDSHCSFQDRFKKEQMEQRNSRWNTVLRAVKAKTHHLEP
- ASSAY_NOTES: Ion channel panel (IonWorks Barracuda): TRPA1
- Type: cell-based
- CONDITION_NOTES: peptide at 20 μM; 100% = no change, <100% = inhibition
- Method: This example describes a method for assaying ion channel activity in cells. Peptides were screened in duplicate at final concentrations of 20 μM and 200 nM, as determined by amino acid analysis, and diluted into HEPES buffered physiological saline (HBPS). HEK293 or CHO cells from the American Type Culture Collection (ATCC) were transfected with the appropriate ion channel before use. […]
READOUT_NAME: Activity of TRPA1 with peptide (percentage of the reference compound) (%)

substance="17 (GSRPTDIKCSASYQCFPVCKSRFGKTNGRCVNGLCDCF) [compound 17]" measure_unit=% readout_value=129
substance="39 (GSGVPTDVKCRGSPQCIQPCKDAGMRFGKCMNGKCHCTPK) [compound 39]" measure_unit=% readout_value=92
substance="2 (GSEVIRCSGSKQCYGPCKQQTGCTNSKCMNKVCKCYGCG) [compound 2]" measure_unit=% readout_value=92
substance="27 (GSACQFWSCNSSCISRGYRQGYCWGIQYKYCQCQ) [compound 27]" measure_unit=% readout_value=114
substance="38 (GSGIGDPVTCLKSGAICHPVFCPRRYKQIGTCGLPGTKCCKKP) [compound 38]" measure_unit=% readout_value=108
substance="18 (GSNCAGYMRECKEKLCCSGYVCSSRWKWCVLPAPWRR) [compound 18]" measure_unit=% readout_value=89
substance="26 (GSVVIGQRCYRSPDCYSACKKLVGKATGKCTNGRCDC) [compound 26]" measure_unit=% readout_value=115
substance="19 (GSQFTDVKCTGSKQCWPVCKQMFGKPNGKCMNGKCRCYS) [compound 19]" measure_unit=% readout_value=109
substance="36 (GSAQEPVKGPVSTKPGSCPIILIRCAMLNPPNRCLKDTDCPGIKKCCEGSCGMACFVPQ) [compound 36]" measure_unit=% readout_value=92

---

# Activity of Nav1.7 with peptide, expressed as a percentage of the reference compound annotations
- STUDY_SYSTEM: Nav1.7 (Homo sapiens)
- Construct: host or cells: HEK293 or CHO
- Sequence (Q15858 whole entry): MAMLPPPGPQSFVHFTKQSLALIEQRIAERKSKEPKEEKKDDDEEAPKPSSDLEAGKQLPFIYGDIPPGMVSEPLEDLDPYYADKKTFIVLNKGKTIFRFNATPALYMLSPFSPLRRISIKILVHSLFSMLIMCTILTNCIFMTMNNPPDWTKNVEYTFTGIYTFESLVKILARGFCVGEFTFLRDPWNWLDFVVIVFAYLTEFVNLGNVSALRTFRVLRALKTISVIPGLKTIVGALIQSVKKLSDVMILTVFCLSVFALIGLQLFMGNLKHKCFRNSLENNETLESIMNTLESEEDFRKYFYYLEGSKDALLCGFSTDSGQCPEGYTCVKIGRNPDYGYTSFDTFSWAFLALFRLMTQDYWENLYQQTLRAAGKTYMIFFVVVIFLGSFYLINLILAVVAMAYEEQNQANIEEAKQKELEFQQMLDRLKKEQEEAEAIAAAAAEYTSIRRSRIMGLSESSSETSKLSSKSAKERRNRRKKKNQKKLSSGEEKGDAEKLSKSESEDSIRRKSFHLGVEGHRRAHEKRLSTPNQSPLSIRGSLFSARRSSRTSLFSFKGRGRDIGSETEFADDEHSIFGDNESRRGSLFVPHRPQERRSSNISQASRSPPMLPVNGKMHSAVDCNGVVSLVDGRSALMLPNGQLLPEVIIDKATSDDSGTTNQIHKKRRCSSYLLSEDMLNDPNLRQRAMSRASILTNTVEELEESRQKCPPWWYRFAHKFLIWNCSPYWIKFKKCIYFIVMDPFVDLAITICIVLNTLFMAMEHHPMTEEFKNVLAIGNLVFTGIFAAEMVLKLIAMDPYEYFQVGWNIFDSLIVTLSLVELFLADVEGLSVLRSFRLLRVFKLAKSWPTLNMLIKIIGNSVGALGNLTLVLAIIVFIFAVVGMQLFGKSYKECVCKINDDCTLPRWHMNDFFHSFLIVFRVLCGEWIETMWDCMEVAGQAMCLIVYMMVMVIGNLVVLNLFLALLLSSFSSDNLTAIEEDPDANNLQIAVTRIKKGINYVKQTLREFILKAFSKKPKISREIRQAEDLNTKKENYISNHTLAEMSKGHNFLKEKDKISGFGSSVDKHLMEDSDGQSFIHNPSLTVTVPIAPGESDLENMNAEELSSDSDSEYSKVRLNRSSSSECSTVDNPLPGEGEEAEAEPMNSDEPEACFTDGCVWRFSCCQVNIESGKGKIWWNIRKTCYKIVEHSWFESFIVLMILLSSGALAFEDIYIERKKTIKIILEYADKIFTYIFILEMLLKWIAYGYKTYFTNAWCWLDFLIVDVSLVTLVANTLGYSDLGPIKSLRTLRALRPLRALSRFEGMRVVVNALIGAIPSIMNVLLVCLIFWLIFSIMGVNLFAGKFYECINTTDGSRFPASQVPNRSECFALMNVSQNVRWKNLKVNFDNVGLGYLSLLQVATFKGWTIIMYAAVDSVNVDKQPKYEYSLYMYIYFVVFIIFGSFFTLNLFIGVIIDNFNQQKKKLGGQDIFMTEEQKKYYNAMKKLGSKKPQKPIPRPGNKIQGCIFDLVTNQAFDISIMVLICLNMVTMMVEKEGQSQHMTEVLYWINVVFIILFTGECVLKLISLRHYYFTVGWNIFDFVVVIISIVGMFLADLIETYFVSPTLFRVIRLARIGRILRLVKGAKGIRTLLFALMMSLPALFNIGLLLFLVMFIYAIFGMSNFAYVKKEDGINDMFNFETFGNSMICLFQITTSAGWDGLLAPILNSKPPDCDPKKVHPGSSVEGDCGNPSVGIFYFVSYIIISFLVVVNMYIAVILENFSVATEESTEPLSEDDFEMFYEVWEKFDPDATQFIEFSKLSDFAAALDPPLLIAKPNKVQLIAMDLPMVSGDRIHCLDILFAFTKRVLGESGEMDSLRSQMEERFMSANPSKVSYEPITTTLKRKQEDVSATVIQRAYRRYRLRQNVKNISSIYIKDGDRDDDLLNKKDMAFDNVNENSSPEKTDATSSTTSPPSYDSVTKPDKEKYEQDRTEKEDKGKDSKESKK
- ASSAY_NOTES: cell-based
- Type: cell-based
- CONDITION_NOTES: peptide at 0.2 μM; second of two Nav1.7 columns (probably TP2); 100% = no change
READOUT_NAME: Activity of Nav1.7 with peptide, expressed as a percentage of the reference compound (%)

substance="16 (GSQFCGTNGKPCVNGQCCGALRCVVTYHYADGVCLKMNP) [compound 16]" readout_value=91
substance="6 (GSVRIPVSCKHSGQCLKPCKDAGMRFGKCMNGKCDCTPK) [compound 6]" readout_value=95
substance="11 (GSGDCLPHLKRCKENNDCCSKKCKRRGANPEKRCR) [compound 11]" readout_value=107
substance="20 (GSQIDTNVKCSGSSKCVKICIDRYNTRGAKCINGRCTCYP) [compound 20]" readout_value=59
substance="2 (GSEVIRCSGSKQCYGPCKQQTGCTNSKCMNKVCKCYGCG) [compound 2]" readout_value=74
substance="27 (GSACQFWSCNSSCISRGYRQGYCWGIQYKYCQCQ) [compound 27]" readout_value=114
substance="12 (GSNFKVEGACSKPCRKYCIDKGARNGKCINGRCHCYY) [compound 12]" readout_value=66
substance="15 (GSAVCNLKRCQLSCRSLGLLGKCIGDKCECVKHG) [compound 15]" readout_value=97
substance="10 (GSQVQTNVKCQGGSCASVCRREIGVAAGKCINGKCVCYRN) [compound 10]" readout_value=98
substance="21 (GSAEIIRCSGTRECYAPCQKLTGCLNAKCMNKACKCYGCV) [compound 21]" readout_value=120
substance="13 (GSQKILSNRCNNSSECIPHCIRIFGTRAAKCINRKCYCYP) [compound 13]" readout_value=66
substance="3 (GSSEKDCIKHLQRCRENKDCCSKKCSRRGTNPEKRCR) [compound 3]" readout_value=113
substance="22 (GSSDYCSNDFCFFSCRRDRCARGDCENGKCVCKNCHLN) [compound 22]" readout_value=81
substance="18 (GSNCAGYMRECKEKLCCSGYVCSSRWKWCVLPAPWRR) [compound 18]" readout_value=84
substance="32 (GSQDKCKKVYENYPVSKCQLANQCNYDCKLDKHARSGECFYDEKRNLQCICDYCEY) [compound 32]" readout_value=97
substance="25 (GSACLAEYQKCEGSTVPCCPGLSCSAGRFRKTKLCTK) [compound 25]" readout_value=54
substance="14 (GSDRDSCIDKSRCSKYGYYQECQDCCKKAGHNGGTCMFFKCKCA) [compound 14]" readout_value=89
substance="24 (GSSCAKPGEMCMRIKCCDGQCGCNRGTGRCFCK) [compound 24]" readout_value=97
substance="4 (GSSCAKPRENCNRMNILCCRGECVCPTFGDCFCYGD) [compound 4]" readout_value=93
